This section presents binders with their documented kon values.
# SYSTEM TESTED: T1, biotinylated native human ApoC3 (human, UniProt P02656 21-99, biotinylated (site not stated))
# T1 construct: also called biotinylated human ApoC3
# T1 sequence (P02656 21-99): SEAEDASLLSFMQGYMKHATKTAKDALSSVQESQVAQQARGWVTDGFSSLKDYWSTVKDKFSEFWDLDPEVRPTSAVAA
# PROTOCOL DETAILS: SPR, IgG1 over biotinylated ApoC3 on SA chip, pH 7.4
# Method: Biotinylated native human ApoC3 was captured on a streptavidin coated SPR chip (GE Healthcare, cat. nr. BR100032) at pH 7.4, in accordance with the method provided by Biacore, by injection of 20 μl 10 μg/ml biotinylated native human ApoC3 reaching the surface density of approximately 500 RU. […] The resulting sensorgrams were analyzed using the BIAevaluation 4.1 software using Langmuir 1:1 binding model to derive binding kinetics. […]
Give the quantity in M⁻¹ s⁻¹, number only.

Here is how some binders turned out for kon.
5E5VH12_VLWT human IgG1 (antibody, V domains shown) VH: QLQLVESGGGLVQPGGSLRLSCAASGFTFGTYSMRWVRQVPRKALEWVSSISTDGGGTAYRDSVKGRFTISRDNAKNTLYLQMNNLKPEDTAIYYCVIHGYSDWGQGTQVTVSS VL: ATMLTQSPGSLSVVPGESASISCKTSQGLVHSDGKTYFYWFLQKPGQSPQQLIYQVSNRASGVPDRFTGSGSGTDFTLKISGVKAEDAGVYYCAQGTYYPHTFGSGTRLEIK : 656000
mAb6 (antibody, IgG1, V domains shown, Produced as full length IgG1 (kappa) in ExpiCHO-S cells; also called humanized anti-ApoC3 antibody mAb6) VH: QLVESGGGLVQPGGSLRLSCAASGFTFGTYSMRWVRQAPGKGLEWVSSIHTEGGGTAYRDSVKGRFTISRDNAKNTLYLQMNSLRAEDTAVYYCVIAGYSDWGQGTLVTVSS VL: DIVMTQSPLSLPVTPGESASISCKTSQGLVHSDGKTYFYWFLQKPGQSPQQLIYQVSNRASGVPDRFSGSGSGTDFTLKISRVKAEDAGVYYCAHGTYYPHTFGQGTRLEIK : 222000

The recorded kon for mAb10 (antibody, IgG1, V domains shown, Produced as full length IgG1 (kappa) in ExpiCHO-S cells; also called humanized anti-ApoC3 antibody mAb10) VH: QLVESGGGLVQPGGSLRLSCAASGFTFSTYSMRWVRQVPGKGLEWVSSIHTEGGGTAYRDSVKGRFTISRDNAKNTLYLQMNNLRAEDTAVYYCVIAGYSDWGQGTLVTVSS VL: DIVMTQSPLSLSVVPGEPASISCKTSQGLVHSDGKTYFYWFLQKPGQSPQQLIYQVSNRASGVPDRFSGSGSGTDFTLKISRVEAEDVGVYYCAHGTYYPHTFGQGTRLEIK is 221000
